Source listed as the supplement of paper PMC4858399.

As shown below, each of these molecules has a reported lowest effective concentration value.
system: Caenorhabditis elegans N2; assay: lowest effective concentration for larval growth inhibition (size below effect threshold); higher = less potent; details: exposure time 48 h
Where a name gives a salt, the structure may show the parent alone.
Give your result in µM as a bare value.

// known answers, use as guide
molecule: CCCCOCCOCCOCc1cc2c(cc1CCC)OCO2 [Piperonyl butoxide]
target_entity: Caenorhabditis elegans N2
lowest effective concentration (µM): 50

molecule: CCOS(=O)(=O)OCC [Diethyl sulfate]
target_entity: Caenorhabditis elegans N2
lowest effective concentration (µM): 100

molecule: c1ccc(NNc2ccccc2)cc1 [1,2-Diphenylhydrazine]
target_entity: Caenorhabditis elegans N2
lowest effective concentration (µM): 50

molecule: CCCCOC(=O)[C@H](C)Oc1ccc(Oc2ccc(C#N)cc2F)cc1 [Cyhalofop-butyl]
target_entity: Caenorhabditis elegans N2
lowest effective concentration (µM): 200

In the following, a different molecule is considered.
The molecule listed as CCCCOC(=O)CCCCC(=O)OCCCC [Dibutyl hexanedioate] has a reported lowest effective concentration of 50

* * *

system: Caenorhabditis elegans N2; assay: mean nematode size ln(EXT) after 48 h, plate-adjusted (DMSO control set to 6) (ln(EXT), control-adjusted); higher = larger nematodes / less growth inhibition; conditions: 1 µM; exposure time 48 h
Counter-ions that a name gives are not always drawn.
As shown below, each of these molecules has a reported mean nematode size ln(EXT) (ln) value.

// known answers, use as guide
molecule: NC(=O)NO [Hydroxyurea]
reported_measurement: 5.97
--
molecule: ClC1C(Cl)C(Cl)C(Cl)C(Cl)C1Cl (stereo not drawn) [beta-1,2,3,4,5,6-Hexachlorocyclohexane]
reported_measurement: 5.63
--
molecule: COP(=O)(NC(C)=O)SC (stereo unspecified) [Acephate]
reported_measurement: 5.74
--
molecule: CC(=O)[O][Hg][c]1ccccc1 [Phenylmercuric acetate]
reported_measurement: 5.07

The molecule CC(C)(C)CC(C)(C)c1ccc(O)cc1 [4-(1,1,3,3-Tetramethylbutyl)phenol] , when measured on Caenorhabditis elegans N2, yielded mean nematode size ln(EXT) (ln) of 6.01

The molecule CCc1ccc(CCOc2ccc(CC3SC(=O)NC3=O)cc2)nc1 (stereo unspecified) [Pioglitazone HCl] , when measured on Caenorhabditis elegans N2, yielded mean nematode size ln(EXT) (ln) of 5.94

The molecule CCOC(=O)CC(SP(=S)(OC)OC)C(=O)OCC (stereo unspecified) [Malathion] , when measured on Caenorhabditis elegans N2, yielded mean nematode size ln(EXT) (ln) of 6.01

The molecule C=CCc1ccc(O)c(OC)c1 [Eugenol] , when measured on Caenorhabditis elegans N2, yielded mean nematode size ln(EXT) (ln) of 5.9

The molecule CCCCCCC(=O)O [Heptanoic acid] , when measured on Caenorhabditis elegans N2, yielded mean nematode size ln(EXT) (ln) of 5.97

The molecule NC(N)=O [Urea] , when measured on Caenorhabditis elegans N2, yielded mean nematode size ln(EXT) (ln) of 5.73

The molecule COc1nn(CSP(=S)(OC)OC)c(=O)s1 [Methidathion] , when measured on Caenorhabditis elegans N2, yielded mean nematode size ln(EXT) (ln) of 5.62

* * *

system: Caenorhabditis elegans N2; assay: mean nematode size ln(EXT) after 48 h, plate-adjusted (DMSO control set to 6) (ln(EXT), control-adjusted); higher = larger nematodes / less growth inhibition; conditions: 1 µM; exposure time 48 h
attribute_measured: mean nematode size ln(EXT) (ln)
Just the number, please, no unit attached.

// known answers, use as guide
compound: CCCCC(CC)CO (stereo not given) [2-Ethyl-1-hexanol]
attribute_measured: mean nematode size ln(EXT) (ln)
reported_measurement: 5.82
//
compound: CCN(Cc1cccc(S(=O)(=O)O)c1)c1ccc(C(=C2C=CC(=[N+](CC)Cc3cccc(S(=O)(=O)O)c3)C=C2)c2ccccc2S(=O)(=O)[O-])cc1 [FD & C Blue no. 1]
attribute_measured: mean nematode size ln(EXT) (ln)
reported_measurement: 5.87
//
compound: C/C=C/c1ccc(OC)cc1 [(E)-Anethole]
attribute_measured: mean nematode size ln(EXT) (ln)
reported_measurement: 5.98

The compound listed as COP(=O)(OC)C(O)C(Cl)(Cl)Cl (stereo not given) [Trichlorfon] has a reported mean nematode size ln(EXT) (ln) of 5.69

The compound listed as CCN(CC)c1ccccc1 [N,N-Diethyl aniline] has a reported mean nematode size ln(EXT) (ln) of 6.09

The compound listed as CCCCCCCCCCCCc1ccc(S(=O)(=O)O)cc1 [4-Dodecylbenzenesulfonic acid] has a reported mean nematode size ln(EXT) (ln) of 5.6

The compound listed as CCCCCCCCCCCCCCC [Pentadecane] has a reported mean nematode size ln(EXT) (ln) of 5.95

* * *

system: Caenorhabditis elegans N2; assay: mean nematode size ln(EXT) after 48 h, plate-adjusted (DMSO control set to 6) (ln(EXT), control-adjusted); higher = larger nematodes / less growth inhibition; conditions: 1 µM; exposure time 48 h
As shown below, each of these compounds has a reported mean nematode size ln(EXT) (ln) value.
Just the number, please, no unit attached.

compound: CCCCCCC(CCCCCCCCCCC(=O)OCC(COC(C)=O)OC(C)=O)OC(C)=O (stereo not given)
target_entity: Caenorhabditis elegans N2
mean nematode size ln(EXT) (ln): 5.6

compound: Cc1ccc(C)c(O)c1 [2,5-Dimethylphenol]
target_entity: Caenorhabditis elegans N2
mean nematode size ln(EXT) (ln): 5.95

compound: COc1cc(Cl)c(OC)cc1Cl [Chloroneb]
target_entity: Caenorhabditis elegans N2
mean nematode size ln(EXT) (ln): 5.71

compound: O=[N+]([O-])C(Br)(CO)CO [Bronopol]
target_entity: Caenorhabditis elegans N2
mean nematode size ln(EXT) (ln): 5.93

compound: CC(C)(O)c1coc(S(=O)(=O)NC(=O)Nc2c3c(cc4c2CCC4)CCC3)c1
target_entity: Caenorhabditis elegans N2
mean nematode size ln(EXT) (ln): 6.15

compound: Oc1ccc(Cl)cc1Cl [2,4-Dichlorophenol]
target_entity: Caenorhabditis elegans N2
mean nematode size ln(EXT) (ln): 6.13

compound: CCCCC(CC)C(=O)OCCOCCOCCOC(=O)C(CC)CCCC (stereo not given) [Tri(ethylene glycol) bis(2-ethylhexanoate)]
target_entity: Caenorhabditis elegans N2
mean nematode size ln(EXT) (ln): 5.86

compound: COc1ccc(C)cc1N [p-Cresidine]
target_entity: Caenorhabditis elegans N2
mean nematode size ln(EXT) (ln): 5.85

compound: NC(=O)N/N=C/c1ccc([N+](=O)[O-])o1 [5-Nitro-2-furaldehyde semicarbazone]
target_entity: Caenorhabditis elegans N2
mean nematode size ln(EXT) (ln): 5.76

compound: N#Cc1cc(Br)c(O)c(Br)c1 [Bromoxynil]
target_entity: Caenorhabditis elegans N2
mean nematode size ln(EXT) (ln): 5.95

The compound Cc1cc(Cc2ccc(N)c(C)c2)ccc1N [4,4'-Methylene bis(2-methylaniline)] , when measured on Caenorhabditis elegans N2, yielded mean nematode size ln(EXT) (ln) of 5.82

The compound COc1ccc2cc(S(=O)(=O)N[C@H](CC(=O)N[C@H](Cc3ccc(CN4[C@H](C)CCC[C@@H]4C)cc3)C(=O)N(C)C(C)C)c3ccc4c(c3)OCO4)ccc2c1 , when measured on Caenorhabditis elegans N2, yielded mean nematode size ln(EXT) (ln) of 5.8

The compound C=CCC1=C(C)[C@@H](OC(=O)[C@@H]2[C@@H](C=C(C)C)C2(C)C)CC1=O [S-Bioallethrin] , when measured on Caenorhabditis elegans N2, yielded mean nematode size ln(EXT) (ln) of 5.78

The compound c1ccc2c(c1)ccc1ccccc12 [Phenanthrene] , when measured on Caenorhabditis elegans N2, yielded mean nematode size ln(EXT) (ln) of 5.89

The compound CCOP(=S)(OCC)SCSCC [Phorate] , when measured on Caenorhabditis elegans N2, yielded mean nematode size ln(EXT) (ln) of 5.87

* * *

As shown below, each of these molecules has a reported AC50 for larval growth inhibition value.
system: Caenorhabditis elegans N2; test: AC50 for larval growth inhibition (Hill fit); higher = less potent; conditions: exposure time 48 h
Give your result in µM as a bare value.

// known answers, use as guide
molecule: CC(C)Oc1cc(-n2nc(C(C)(C)C)oc2=O)c(Cl)cc1Cl
unit_text: µM
AC50 for larval growth inhibition: 120
--
molecule: CCCCCCCCCCCCCCO
unit_text: µM
AC50 for larval growth inhibition: 19.7
--
molecule: C#CCOS(=O)OC1CCCCC1Oc1ccc(C(C)(C)C)cc1 (stereo not given)
unit_text: µM
AC50 for larval growth inhibition: 150
--
molecule: CCN(CC)C(=O)C(C)Oc1cccc2ccccc12 (stereo not given) [Napropamide]
unit_text: µM
AC50 for larval growth inhibition: 97.3

The molecule CCCCCCCCOC(=O)c1cc(O)c(O)c(O)c1 [Octyl gallate] , when measured on Caenorhabditis elegans N2, yielded AC50 for larval growth inhibition of 55.1

* * *

As shown below, each of these molecules has a reported AC50 for larval growth inhibition value.
tested on: Caenorhabditis elegans N2; experiment: AC50 for larval growth inhibition (Hill fit); higher = less potent; conditions: exposure time 48 h
Counter-ions that a name gives are not always drawn.
Give your result in µM as a bare value.

// known answers, use as guide
molecule: COC(=O)C=C(C)OP(=O)(OC)OC
AC50 for larval growth inhibition / µM: 156

molecule: CCC(C)Nc1c([N+](=O)[O-])cc(C(C)(C)C)cc1[N+](=O)[O-] (centres undefined)
AC50 for larval growth inhibition / µM: 48.9

The molecule listed as Clc1ccc(C(c2ccc(Cl)cc2)C(Cl)Cl)cc1 has a reported AC50 for larval growth inhibition of 1.88

The molecule listed as CC/C(=C(\c1ccccc1)c1ccc(OCCN(C)C)cc1)c1ccccc1 [Tamoxifen citrate salt] has a reported AC50 for larval growth inhibition of 10.9
